- test.system: human Cx26 HCs (Homo sapiens, UniProt P29033)
- Construct: expressed in transfected cells; host or cells: E. coli LB2003 (carrying pREP4), transformed with pQE-Cx26, IPTG-induced
- test.protocol: Cx26-dependent growth complementation assay in E. coli LB2003
- Type: cell-based
- test.parameters: 15 μM; Table 3
assay.endpoint: inhibition at 15 µM (%)

compound	measurement
NC1CC(N)C(O[C@H]2OC(CNC(=O)c3cc(-c4ccccc4)nc4ccccc34)[C@@H](O)C(O)C2O)[C@H](O)C1OC1O[C@H](CO)C(O)C(N)[C@H]1O (some centres unmarked)	8.8
NCC1O[C@H](OC2C(N)CC(N)C(OC3O[C@H](CO)C(O)C(N)[C@H]3O)C2O)C(O)[C@@H](O)[C@@H]1O (stereo in doubt) [Kanamycin A, reference compound]	49.7

P. NC1CC(N)C(O[C@H]2OC(CNC(=O)c3ccccc3-c3c4ccc(=O)cc-4oc4ccc(O)cc34)[C@@H](O)C(O)C2O)[C@H](O)C1OC1O[C@H](CO)C(O)C(N)[C@H]1O (some centres unmarked)
Q. CCCCCCCC(=O)NCC1O[C@H](OC2C(N)CC(N)C(OC3O[C@H](CO)C(O)C(N)[C@H]3O)[C@H]2O)C(O)C(O)[C@@H]1O (some centres unmarked)
input: Would you let me know which has the greater inhibition at 15 µM value, P or Q ? Return value: the label identifying the chosen record.
output: P

---

- test.system: human Cx26 HCs (Homo sapiens)
- Construct: expressed in transfected cells; host or cells: E. coli LB2003 (carrying pREP4), transformed with pQE-Cx26, IPTG-induced
- test.protocol: Cx26-dependent growth complementation assay in E. coli LB2003
- Format: cell-based
- test.parameters: 50 μM; Table 3
assay.endpoint: inhibition at 50 µM (%)

molecule	measurement
CCCCCCCCCCCC(=O)NCC1O[C@H](OC2C(N)CC(N)C(OC3O[C@H](CO)C(O)C(N)[C@H]3O)[C@H]2O)C(O)C(O)[C@@H]1O (some centres unmarked)	56.2
NCC1O[C@H](OC2C(N)CC(N)C(OC3O[C@H](COc4ccc([N+](=O)[O-])cc4)C(O)C(N)[C@H]3O)[C@H]2O)C(O)C(O)[C@@H]1O (some centres unmarked)	62.6
Cc1ccc(OC[C@H]2OC(OC3C(N)CC(N)C(O[C@H]4OC(CN)[C@@H](O)C(O)C4O)[C@@H]3O)[C@H](O)C(N)C2O)cc1 (some centres unmarked)	28.2
NC1CC(N)C(O[C@H]2OC(CNC(=O)c3cc(-c4ccccc4)nc4ccccc34)[C@@H](O)C(O)C2O)[C@H](O)C1OC1O[C@H](CO)C(O)C(N)[C@H]1O (some centres unmarked)	22.8
NCC1O[C@H](OC2C(N)CC(N)C(OC3O[C@H](COc4ccc(Cl)cc4)C(O)C(N)[C@H]3O)[C@H]2O)C(O)C(O)[C@@H]1O (some centres unmarked)	69.5
CCCCCCCCCC(=O)NCC1O[C@H](OC2C(N)CC(N)C(OC3O[C@H](CO)C(O)C(N)[C@H]3O)[C@H]2O)C(O)C(O)[C@@H]1O (some centres unmarked)	33.6
NCC1O[C@H](OC2C(N)CC(N)C(OC3O[C@H](CNC(=O)c4ccccc4-c4c5ccc(=O)cc-5oc5cc(O)ccc45)C(O)C(N)[C@H]3O)[C@H]2O)C(O)C(O)[C@@H]1O (some centres unmarked)	81
NC1CC(N)C(O[C@H]2OC(CNC(=O)c3ccccc3-c3c4ccc(=O)cc-4oc4ccc(O)cc34)[C@@H](O)C(O)C2O)[C@H](O)C1OC1O[C@H](CO)C(O)C(N)[C@H]1O (some centres unmarked)	79.6

1. NCC1O[C@H](OC2C(N)CC(N)C(OC3O[C@H](CO)C(O)C(N)[C@H]3O)C2O)C(O)[C@@H](O)[C@@H]1O (stereo in doubt) [Kanamycin A, reference compound]
2. Cc1ccc(S(=O)(=O)OC[C@H]2OC(OC3C(N)CC(N)C(O[C@H]4OC(CN)[C@@H](O)C(O)C4O)[C@@H]3O)[C@H](O)C(N)C2O)cc1 (some centres unmarked)
input: Which entry shows the lesser value of inhibition at 50 µM here, 1 or 2 ? Return value: the label identifying the chosen record.
output: 2

---

- test.system: human Cx26 HCs (Homo sapiens)
- Construct: expressed in transfected cells; host or cells: E. coli LB2003 (carrying pREP4), transformed with pQE-Cx26, IPTG-induced
- test.protocol: Cx26-dependent growth complementation assay in E. coli LB2003
- Assay type: cell-based
- test.parameters: 15 μM; Table 3
assay.endpoint: inhibition at 15 µM (%)

compound	inhibition at 15 µM (%)
NCC1O[C@H](OC2C(N)CC(N)C(OC3O[C@H](COc4ccccc4)C(O)C(N)[C@H]3O)[C@H]2O)C(O)C(O)[C@@H]1O (stereo partly drawn) [Compound K34]	14.6

A. Cc1ccc(S(=O)(=O)OC[C@H]2OC(OC3C(N)CC(N)C(O[C@H]4OC(CN)[C@@H](O)C(O)C4O)[C@@H]3O)[C@H](O)C(N)C2O)cc1 (stereo partly drawn) [Compound K19]
B. CCCCCCCCCCCC(=O)NCC1O[C@H](OC2C(N)CC(N)C(OC3O[C@H](CO)C(O)C(N)[C@H]3O)[C@H]2O)C(O)C(O)[C@@H]1O (stereo partly drawn) [KI04]
input: Which entry shows the lesser value of inhibition at 15 µM here, A or B ? Return value: the label identifying the chosen record.
output: B

---

- test.system: human Cx26 HCs (Homo sapiens)
- Construct: expressed in transfected cells; host or cells: E. coli LB2003 (carrying pREP4), transformed with pQE-Cx26, IPTG-induced
- test.protocol: Cx26-dependent growth complementation assay in E. coli LB2003
- Type: cell-based
- test.parameters: 4″,6″-disubstituted AKs, Table 5; read-out: Cx26 IC50
assay.endpoint: pIC50
Keep it numeric: pIC50 is minus log10 of the concentration in mol/L.

Record excerpt, results attached:
molecule	assay.endpoint	measurement
CCCCOCC1OC(OC2C(N)CC(N)C(OC3OC(CN)C(O)C(O)C3O)C2O)C(O)C(N)C1OCCCC (stereo not drawn)	pIC50	4.72
CCCCCCCCCOC[C@H]1O[C@H](O[C@H]2[C@H](O)[C@@H](O[C@H]3O[C@H](CN)[C@@H](O)[C@H](O)[C@H]3O)[C@H](N)C[C@@H]2N)[C@H](O)[C@@H](N)[C@@H]1OCCCCCCCCC	pIC50	4.73
NC[C@H]1O[C@H](O[C@H]2[C@H](O)[C@@H](O[C@@H]3O[C@H](COCc4ccc(F)cc4)[C@@H](OCc4ccc(F)cc4)[C@H](N)[C@H]3O)[C@H](N)C[C@@H]2N)[C@H](O)[C@@H](O)[C@@H]1O	pIC50	5.09

The measured pIC50 associated with NCC1OC(OC2C(N)CC(N)C(OC3OC(COCc4ccc(Cl)cc4)C(OCc4ccc(Cl)cc4)C(N)C3O)C2O)C(O)C(O)C1O (stereo not drawn) reads 5.60

The measured pIC50 associated with CCCCCCOC[C@H]1O[C@H](O[C@@H]2[C@@H](O)[C@H](O[C@H]3O[C@H](CN)[C@@H](O)[C@H](O)[C@H]3O)[C@@H](N)C[C@H]2N)[C@H](O)[C@@H](N)[C@@H]1OCCCCCC reads 5.21

The measured pIC50 associated with CCCCCCCCOC[C@H]1OC(O[C@@H]2C(N)CC(N)C(O[C@H]3OC(CN)[C@@H](O)[C@H](O)C3O)[C@@H]2O)[C@H](O)[C@H](N)C1OCCCCCCCC (stereo partly drawn) reads 4.87

---

- test.system: Cx43 HCs (Homo sapiens, UniProt P17302)
- Construct: expressed in transfected cells
- Sequence (P17302 whole entry): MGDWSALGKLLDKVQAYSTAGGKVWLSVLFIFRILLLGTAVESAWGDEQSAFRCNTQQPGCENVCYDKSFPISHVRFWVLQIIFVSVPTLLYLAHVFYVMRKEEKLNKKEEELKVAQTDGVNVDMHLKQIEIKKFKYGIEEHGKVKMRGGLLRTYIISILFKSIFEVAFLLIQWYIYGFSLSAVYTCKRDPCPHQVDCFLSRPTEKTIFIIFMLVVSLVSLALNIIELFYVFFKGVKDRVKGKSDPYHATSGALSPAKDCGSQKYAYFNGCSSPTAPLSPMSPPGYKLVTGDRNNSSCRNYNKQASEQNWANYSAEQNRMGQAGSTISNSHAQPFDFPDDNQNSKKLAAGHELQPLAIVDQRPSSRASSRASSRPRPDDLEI
- test.protocol: Cx43-dependent growth complementation assay in E. coli LB2003
- Format: cell-based
- test.parameters: 50 μM; Table 6; read-out: Cx43 (% inhibition)
assay.endpoint: inhibition at 50 µM (%)

Record excerpt, results attached:
compound	unit.descriptor	measurement
NCC1O[C@H](OC2C(N)CC(N)C(OC3O[C@H](COc4ccc([N+](=O)[O-])cc4)C(O)C(N)[C@H]3O)[C@H]2O)C(O)C(O)[C@@H]1O (stereo partly drawn) [Compound K36]	%	49.3
NCC1O[C@H](OC2C(N)CC(N)C(OC3O[C@H](COc4ccccc4)C(O)C(N)[C@H]3O)[C@H]2O)C(O)C(O)[C@@H]1O (stereo partly drawn) [Compound K34]	%	46.7

I. NC1CC(N)C(O[C@H]2OC(CNC(=O)c3ccccc3-c3c4ccc(=O)cc-4oc4ccc(O)cc34)[C@@H](O)C(O)C2O)[C@H](O)C1OC1O[C@H](CO)C(O)C(N)[C@H]1O (stereo partly drawn) [KI10]
II. CCCCCCCCCC(=O)NCC1O[C@H](OC2C(N)CC(N)C(OC3O[C@H](CO)C(O)C(N)[C@H]3O)[C@H]2O)C(O)C(O)[C@@H]1O (stereo partly drawn) [KI03]
III. CCCCCCCC(=O)NCC1O[C@H](OC2C(N)CC(N)C(OC3O[C@H](CO)C(O)C(N)[C@H]3O)[C@H]2O)C(O)C(O)[C@@H]1O (stereo partly drawn) [KI02]
input: // smallest inhibition at 50 µM at index 0, largest at the end A complete answer lists every label in the requested sequence.
output: III, II, I
